Molecular target: DNA topoisomerase 2-alpha (Homo sapiens) (UniProt P11388)
Sequence (P11388 whole entry): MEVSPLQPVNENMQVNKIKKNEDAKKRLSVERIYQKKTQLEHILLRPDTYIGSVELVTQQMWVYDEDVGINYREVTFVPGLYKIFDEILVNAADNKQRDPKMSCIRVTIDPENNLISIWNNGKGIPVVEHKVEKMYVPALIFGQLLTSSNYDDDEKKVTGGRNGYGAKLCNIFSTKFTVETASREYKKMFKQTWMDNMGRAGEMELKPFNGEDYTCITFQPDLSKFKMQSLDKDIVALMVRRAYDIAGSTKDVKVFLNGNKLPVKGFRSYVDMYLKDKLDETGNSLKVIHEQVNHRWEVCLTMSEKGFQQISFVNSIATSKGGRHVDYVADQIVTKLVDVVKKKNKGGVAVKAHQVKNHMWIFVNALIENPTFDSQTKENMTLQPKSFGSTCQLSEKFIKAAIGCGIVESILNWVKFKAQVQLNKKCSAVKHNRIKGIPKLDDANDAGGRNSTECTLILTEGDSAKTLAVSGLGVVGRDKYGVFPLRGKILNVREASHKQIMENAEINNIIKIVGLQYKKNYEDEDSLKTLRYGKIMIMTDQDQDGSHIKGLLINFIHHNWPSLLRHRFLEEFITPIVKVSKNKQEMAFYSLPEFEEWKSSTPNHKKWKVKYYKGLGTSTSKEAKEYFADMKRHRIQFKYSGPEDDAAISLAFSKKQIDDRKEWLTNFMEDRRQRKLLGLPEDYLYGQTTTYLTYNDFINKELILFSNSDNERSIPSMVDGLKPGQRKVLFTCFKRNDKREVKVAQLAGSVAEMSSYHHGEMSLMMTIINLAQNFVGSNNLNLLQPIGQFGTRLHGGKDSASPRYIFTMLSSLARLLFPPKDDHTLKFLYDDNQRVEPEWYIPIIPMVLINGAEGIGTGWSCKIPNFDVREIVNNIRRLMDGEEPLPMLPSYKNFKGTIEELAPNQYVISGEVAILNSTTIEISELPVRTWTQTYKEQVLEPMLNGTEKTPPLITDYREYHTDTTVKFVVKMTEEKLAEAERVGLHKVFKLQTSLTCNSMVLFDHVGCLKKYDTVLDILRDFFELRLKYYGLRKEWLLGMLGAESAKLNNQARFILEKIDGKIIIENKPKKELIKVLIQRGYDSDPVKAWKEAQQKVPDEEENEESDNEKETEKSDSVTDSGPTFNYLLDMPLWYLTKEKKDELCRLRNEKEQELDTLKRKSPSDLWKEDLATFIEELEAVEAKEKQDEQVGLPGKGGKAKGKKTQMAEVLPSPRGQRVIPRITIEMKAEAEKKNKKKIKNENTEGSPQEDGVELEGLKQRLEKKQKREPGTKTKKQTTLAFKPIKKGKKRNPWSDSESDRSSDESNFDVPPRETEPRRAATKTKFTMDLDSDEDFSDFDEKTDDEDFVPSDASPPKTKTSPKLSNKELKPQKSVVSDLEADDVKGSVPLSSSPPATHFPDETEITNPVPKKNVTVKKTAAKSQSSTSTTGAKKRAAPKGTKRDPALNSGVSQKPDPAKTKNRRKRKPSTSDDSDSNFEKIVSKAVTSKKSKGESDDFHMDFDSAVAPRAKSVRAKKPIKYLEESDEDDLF
Assay: Inhibition of topoisomerase 2alpha (unknown origin) assessed as relaxation of supercoiled plasmid pBR322 DNA at 100 uM relative to control
Could you label it Criterion met if measured inhibition is 10% or higher, and Criterion not met otherwise?

Data request: Check the entry Oc1ccc(-c2cc(-c3cccc(C(F)(F)F)c3)cc(-c3ccc(O)cc3)n2)cc1 : does inhibition equal or exceed 10%?
Data returned: Criterion not met

Data request: Assess whether reported inhibition for Oc1ccc(-c2cc(-c3ccccc3OC(F)(F)F)cc(-c3ccccc3O)n2)cc1 sits at 10% or higher.
Data returned: Criterion not met

Data request: Exam item: decide whether the reported inhibition for Oc1ccc(-c2cc(-c3ccccc3C(F)(F)F)cc(-c3ccc(O)cc3)n2)cc1 is at least 10%.
Data returned: Criterion not met

Data request: Check this compound for inhibition at or above 10%: Oc1cccc(-c2cc(-c3cccc(F)c3)cc(-c3cccc(O)c3)n2)c1
Data returned: Criterion not met

Data request: Form field: inhibition at least 10%? Entry: Oc1ccc(-c2cc(-c3ccccc3OC(F)(F)F)cc(-c3cccc(O)c3)n2)cc1
Data returned: Criterion met

Data request: Please check the record Oc1ccc(-c2cc(-c3ccc(F)cc3)cc(-c3ccc(O)cc3)n2)cc1 and state if its inhibition is at or above 10%.
Data returned: Criterion met

Data request: # check: inhibition of Oc1ccc(-c2cc(-c3ccccc3F)cc(-c3cccc(O)c3)n2)cc1 is greater than or equal to 10%
Data returned: Criterion met

Data request: I'd appreciate it if you could say whether Oc1ccccc1-c1cc(-c2ccc(OC(F)(F)F)cc2)cc(-c2ccccc2O)n1 has inhibition at least equal to 10%.
Data returned: Criterion not met

Data request: Assess whether reported inhibition for Oc1ccccc1-c1cc(-c2cccc(OC(F)(F)F)c2)cc(-c2ccccc2O)n1 sits at 10% or higher.
Data returned: Criterion met

Data request: Please indicate if the recorded inhibition for Oc1cccc(-c2cc(-c3ccccc3OC(F)(F)F)cc(-c3cccc(O)c3)n2)c1 meets or exceeds 10%.
Data returned: Criterion met

Data request: API: above_or_equal(metric=inhibition, cutoff=10%) for item Oc1cccc(-c2cc(-c3cccc(C(F)(F)F)c3)cc(-c3cccc(O)c3)n2)c1
Data returned: Criterion met

Data request: Can Oc1cccc(-c2cc(-c3ccc(F)cc3)cc(-c3ccccc3O)n2)c1 be said to have inhibition at or above 10%?
Data returned: Criterion not met

Data request: Could you verify whether the entry Oc1ccccc1-c1cc(-c2cccc(C(F)(F)F)c2)cc(-c2ccccc2O)n1 shows inhibition of no less than 10%?
Data returned: Criterion not met

###

Target: DNA topoisomerase 2-alpha (Homo sapiens)
Test: Inhibition of topoisomerase 2alpha (unknown origin) assessed as relaxation of supercoiled plasmid pBR322 DNA at 100 uM relative to control
Measurement Label: inhibition (%)
Give your result in % as a bare value.

Documented inhibition of Oc1ccc(-c2cc(-c3ccc(C(F)(F)F)cc3)cc(-c3ccc(O)cc3)n2)cc1 : 0.2

The value of inhibition measured for the compound Oc1ccc(-c2cc(-c3ccc(OC(F)(F)F)cc3)cc(-c3ccc(O)cc3)n2)cc1 turned out to be 59

Input Oc1ccc(-c2cc(-c3ccccc3F)cc(-c3ccc(O)cc3)n2)cc1 . Output inhibition: 0

Oc1cccc(-c2cc(-c3cccc(C(F)(F)F)c3)cc(-c3ccccc3O)n2)c1 has a reported inhibition of 0.6

get_value(item= Oc1cccc(-c2cc(-c3ccccc3C(F)(F)F)cc(-c3ccccc3O)n2)c1 , readout=inhibition) returns 2.6
